# Study system: FLAG tagged human Ang2 (Alexis Biochemicals) (human) (UniProt O15123)
# Sequence (O15123 19-496): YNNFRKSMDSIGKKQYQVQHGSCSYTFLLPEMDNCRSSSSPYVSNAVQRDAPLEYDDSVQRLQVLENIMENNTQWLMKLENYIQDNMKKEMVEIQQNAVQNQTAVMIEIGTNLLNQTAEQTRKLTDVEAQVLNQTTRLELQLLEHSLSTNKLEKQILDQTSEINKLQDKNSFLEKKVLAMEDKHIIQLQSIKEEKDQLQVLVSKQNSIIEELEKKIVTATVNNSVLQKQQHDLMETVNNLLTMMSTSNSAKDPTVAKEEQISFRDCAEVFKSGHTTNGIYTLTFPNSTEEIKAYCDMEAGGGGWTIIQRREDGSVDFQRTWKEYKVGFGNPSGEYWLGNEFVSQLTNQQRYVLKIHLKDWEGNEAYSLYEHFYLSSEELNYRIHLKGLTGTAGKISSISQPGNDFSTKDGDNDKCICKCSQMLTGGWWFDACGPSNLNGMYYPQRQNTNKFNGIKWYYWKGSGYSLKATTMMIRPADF
# Test summary: AlphaScreen competition, periplasmic extract, FLAG-hAng2 / biotin-hTie2/Fc
Given measured % inh, output 1 (yes) if it is greater than or equal to 60% and 0 (no) if not.

[[record]]
binder = "VHH 25D08 (VHH, not shown: small tags and cut ends) VHH: EVQLVESGGGLVQAGGSLRLSCAASGFTFDDYAIGWFRQAPGKDLEGVSCISSSDGSTYYADSVKGRFTISSDNAKNTVYLQMNSLKPEDTAVYYCAAVNGLGPFSVPVPVYDFWGQGTQVTVSS"
class = "1 (yes)"

[[record]]
binder = "VHH 14A08 (VHH, not shown: small tags and cut ends) VHH: EVQLVESGGGLVQAGGSLRLSCASSGFTFDDYAIGWFRQAPGKEREGVSCISSSDGSTYYADSVKGRFTISSDNAKNTVYLQMNSLKPEDTAVYYCAARPPFHSCSEYENDYWGQGTQVTVSS"
class = "0 (no)"

[[record]]
binder = "VHH 28D10 (VHH, not shown: small tags and cut ends) VHH: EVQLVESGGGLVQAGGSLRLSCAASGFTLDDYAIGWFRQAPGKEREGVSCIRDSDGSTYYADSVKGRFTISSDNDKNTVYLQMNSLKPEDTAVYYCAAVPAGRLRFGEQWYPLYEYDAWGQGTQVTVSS"
class = "1 (yes)"

[[record]]
binder = "VHH 15H04 (VHH, not shown: small tags and cut ends) VHH: EVQLVESGGGLVQAGGSLGLSCAASERTLPSYVMGWFRQAPGKELEFVAGISWSSGRTYYTDSVKGRFTISRDAAENTWYLQMNSLKPEDTAVYYCASNSVSEPTLHTWQYEASYDYWGQGTQVTVSS"
class = "0 (no)"

[[record]]
binder = "VHH 32H10 (VHH, not shown: small tags and cut ends) VHH: EVQLVESGGGLVQAGGSLRLSCAASGFDFEDYDMGWFRQAPGKEREGVSYISSSDGSTYYTDSVKGRFTISSDNAKNTVYLQMNSLIPEDTAVYYCAARPWTRRVYGSSWLARSLDEYEYDYWGQGTQVTVSS"
class = "0 (no)"

[[record]]
binder = "VHH 15A06 (VHH, not shown: small tags and cut ends) VHH: EVQLVESGGGLVQAGGSLRLSCAASGRTFSSYAMGWFRQAPGKEREFVARISWNGGSTYHADSVKGRFTISRDNPKNTVYLQMDSLKPEDAAIYYCAASIALVGGVTPHSYDYWGQGTQVTVSS"
class = "1 (yes)"

[[record]]
binder = "VHH 12A08 (VHH, not shown: small tags and cut ends) VHH: EVQLVESGRGLVQAGGSLRLSCAASGSIFSINAMLWYRQAPGKQRELVAAITSGGSTNYADSVKGRFTISRDNAKNTVYLQMNSLKPEDTAVYYCAADSDYSSDYYYWGQGTQVTVSS"
class = "1 (yes)"

